experimental protocol: Primary qHTS to identify inhibitors of SARS-CoV-2 cell entry (AID 1645846); also: nearly all actives have a fitted effect of over 45% in size; also: potency is read from the fitted curve at half-maximal effect
experimental context: SARS-CoV-2 pseudovirus cell entry assay, luminescence; series mostly up to 57.1 µM
Inconclusive results are not listed. Calls of active or inactive are those of the source. Calls follow the shape of the full dose curve.
metric: Potency

| molecule | metric | result |
| --- | --- | --- |
| CCC(C)(Oc1ccc(C2(c3ccc(OC(C)(CC)C(=O)O)cc3)CCCCC2)cc1)C(=O)O (stereo not given) | Potency | inactive |
| O=C(O)c1ccc2cc(-c3ccc(O)c(C45CC6CC(CC(C6)C4)C5)c3)ccc2c1 | Potency | 1580 nM (active) |
| S=C(SSC(=S)N1CCCCC1)N1CCCCC1 | Potency | 1120 nM (active) |
| CCCCCCCCCCCCCC(=O)OC(C)C | Potency | inactive |
| CCCCn1c(=O)n(Cc2ccccc2F)c(=O)c2[nH]c(Cc3ccc(NC(C)=O)cc3)nc21 | Potency | inactive |
| COc1cc(Nc2ncc(F)c(Nc3ccc4c(n3)NC(=O)C(C)(C)O4)n2)cc(OC)c1OC | Potency | inactive |
| O=S(=O)(CC1CS1)c1ccc(Oc2ccccc2)cc1 (stereo not given) | Potency | inactive |
| COc1nc(C)cnc1NS(=O)(=O)c1cccnc1-c1ccc(-c2nnco2)cc1 | Potency | inactive |
| c1ccc2c(CCNc3ccc(Nc4ccncc4)cc3)c[nH]c2c1 | Potency | 8910 nM (active) |
| CS(=O)(=O)Oc1ccc2c(NC(N)=O)c(C(=O)c3ccc(Cl)cc3Cl)oc2c1 | Potency | inactive |

* * *

Test system: HEK293
experimental protocol: Cytotoxic Profiling of Annotated Libraries Using Quantitative High-Throughput Screening (AID 1296008); also: nearly all actives have a fitted effect of over 60% in size
experimental context: Five cell lines viability, CellTiter-Glo ATP luminescence, 48-72 h
Records with an inconclusive call do not appear. Active and inactive are the calls of the source. Calls come from the whole dose curve; as a rule, active = well fitted inhibition curve with a large enough effect; inconclusive = small, poorly fitted or top-dose-only effect; inactive = flat fitted curve, though single readings scatter.
Classes used: active, inactive

| molecule | discrete label |
| --- | --- |
| N=c1c2c(-c3ccccc3)c(-c3ccccc3)n(Cc3ccccc3)c2ncn1C1CCC(O)CC1 (stereo unspecified) | active |
| C[C@@H]1O[C@@H](O[C@@H]2C=C3CC[C@@H]4[C@@H](CC[C@]5(C)[C@H](c6ccc(=O)oc6)CC[C@@]45O)[C@@]3(C)CC2)[C@H](O)[C@H](O)[C@H]1O | active |
| CCCCCC[C@H]1C(=O)O[C@H](C)[C@H](NC(=O)c2cccc(NC=O)c2O)C(=O)O[C@@H](C)[C@@H]1OC(=O)CC(C)C | active |
| Cc1ccccc1-n1c(Cn2ncc3c(N)ncnc32)nc2cccc(C)c2c1=O | inactive |
| CC(C)(O)C=CC(=O)[C@](C)(O)[C@H]1[C@H](O)C[C@]2(C)[C@@H]3CC=C4[C@@H](C=C(O)C(=O)C4(C)C)[C@]3(C)C(=O)C[C@@]12C | active |
| CO/C=C(/C(=O)OC)c1ccccc1Oc1cc(Oc2ccccc2C#N)ncn1 | active |
| N#C[C@H](O[C@@H]1O[C@H](CO[C@@H]2O[C@H](CO)[C@H](O)[C@H](O)[C@H]2O)[C@H](O)[C@H](O)[C@H]1O)c1ccccc1 | active |
| O=[N+]([O-])c1ccc([As](=O)(O)O)cc1 | inactive |
| CC(=O)O[C@@]12CO[C@H]1C[C@H](O)[C@@]1(C)C(=O)[C@H](O)C3=C(C)[C@@H](O)C[C@@](O)([C@@H](OC(=O)c4ccccc4)[C@@H]21)C3(C)C | active |
| CC[N+]1(CCOC(=O)C(O)(c2ccccc2)c2ccccc2)CCCCC1 | inactive |
| O=C(O)CNC(=O)c1c(O)c2ccccc2n(Cc2ccccc2)c1=O | inactive |

* * *

experimental protocol: Quantitative High-Throughput drug screen in 47 multiple myeloma cell lines against the NCATS MIPE library collection: KMS20_JCRB cell viability assay (AID 1918973); also: nearly all actives have a fitted effect of over 45% in size
experimental context: CellTiter-Glo ATP, 48 h; series mostly up to 45.8 µM
Results filed as inconclusive are left out. Activity calls are given as the source filed them. Calls follow the shape of the dose curve; as a rule, active = well fitted cell-killing curve with a large enough effect; inconclusive = small, poorly fitted or top-dose-only effect, or effect the other way; inactive = no such curve, though single readings can be large or run the other way.
Classes used: True (active), False (inactive)

| molecule | discrete label |
| --- | --- |
| O=S(=O)(CC1CS1)c1ccc(Oc2ccccc2)cc1 (configuration not stated) | True |
| C[C@]12COC(=O)C[C@@H]1CC[C@@H]1[C@H]2CC[C@@]2(C)[C@H]1CC[C@]2(C)O | False |
| CC(N[C@H]1C[C@H]1c1ccccc1)c1ccc2c(c1)OCCO2 (some centres not stated) | True |
| C#CC1(O)CCC2C3CCC4=CC(=O)CCC4(C)C3CCC21C (configuration not stated) | False |
| Cc1nc(-c2ccc(-c3ccc(C(=O)N4CCc5cc6c(cc54)C4(CCN(C)CC4)CO6)cc3)c(C)c2)no1 | False |
| COC1=C[C@@H]2[C@@H]3Cc4ccc(OC)c(O)c4[C@]2(CCN3C)CC1=O | True |
| COC1=CC(C)=C[C@@H](C)[C@@H](O)[C@@H](C)CC(C)=CC=C[C@H](OC)[C@H]([C@@H](C)[C@@H](O)[C@H](C)[C@@]2(O)C[C@@H](O)[C@H](C)[C@@H](C(C)C)O2)OC1=O | True |
| CN1[C@H]2CC(O)C[C@H]1[C@H]1O[C@H]12 (some centres not stated) | True |
| CCN1CCN(C(=O)Cc2ccc(Nc3ncc(F)c(Nc4ccc(C(=O)Nc5ccccc5Cl)cc4)n3)cc2)CC1 | True |
| CC[C@@]1(O)C(=O)OCc2c1cc1n(c2=O)Cc2cc3ccccc3nc2-1 | True |
| CC(C)N[C@@H]1CCn2c(=O)[nH]c3cccc(c32)[C@@H]1O | True |
| CCc1c(C(=O)C(N)=O)c2c(OCC(=O)O)cccc2n1Cc1ccccc1 | False |

* * *

experimental protocol: Immunotoxin (SS1P) sensitization/mitigation study. Vehicle arm (DMEM) (AID 1159513)
experimental context: cell viability with vehicle (DMEM); series mostly up to 46.1 µM
Calls of active or inactive are those of the source. No rule for the calls is given here.
Possible outcomes: active, inactive

| compound | discrete label |
| --- | --- |
| Cc1cccc(-c2[nH]ncc2-c2ccc3ncccc3n2)n1 | inactive |
| Cc1cc2c(F)c(Oc3ncnn4cc(OC[C@@H](C)O)c(C)c34)ccc2[nH]1 | active |
| Cn1cncc1[C@@](N)(c1ccc(Cl)cc1)c1ccc2c(c1)c(-c1cccc(Cl)c1)cc(=O)n2C | active |
| O=C(C=Cc1cccnc1)NCCCCC1CCN(C(=O)c2ccccc2)CC1 | inactive |
| COCC(=O)NCC=Cc1ccc2ncnc(Nc3ccc(Oc4ccc(C)nc4)c(C)c3)c2c1 | active |
| CC(C)C(=O)Nc1ncc(-c2cc(C(F)F)nn2-c2c(Cl)cccc2Cl)s1 | active |
| CC(C)[C@H](CO)Nc1nc(Nc2ccc(C(=O)O)c(Cl)c2)c2ncn(C(C)C)c2n1 | inactive |
| COc1ccc(-c2c(-c3ccc(O)cc3O)n[nH]c2C)cc1 | active |
| CCN(CC)CCn1c(=O)c(Cc2ccc(OC)cc2)nc2ccccc21 | inactive |
| CCCCN1CCC(CNC(=O)c2c3n(c4ccccc24)CCCO3)CC1 | inactive |
| CCC1(O)CC2CN(CCc3c([nH]c4ccccc34)[C@@](C(=O)OC)(c3cc4c(cc3OC)N(C=O)[C@H]3[C@](O)(C(=O)OC)[C@H](OC(C)=O)[C@]5(CC)C=CCN6CC[C@]43[C@@H]65)C2)C1 (some centres undefined) | active |
| CCCCCN(CCC12CC3CC(CC(C3)C1)C2)C(=O)NCCCc1ccncc1 | active |
| COc1cc2c(cc1OC)CC(=O)N(CCCN(C)C[C@H]1Cc3cc(OC)c(OC)cc31)CC2 | inactive |
| NC(=O)c1ccc(N(C(N)=O)c2c(F)cccc2F)nc1-c1ccc(F)cc1F | inactive |
| CC(C)(C)OC(=O)Nc1ccc(-c2cc(C(=O)NCCCCCCC(=O)NO)no2)cc1 | active |
| C=C1C(=CC=C2CCC[C@]3(C)[C@@H]([C@H](C)C=C[C@H](C)C(C)C)CC[C@@H]23)C[C@@H](O)C[C@@H]1O | inactive |
| Cc1cc(-c2ccc(CC(=O)Nc3ccc(-c4cccnc4)cc3)cc2)ccn1 | active |
| CC(=O)NCCC(=O)N[C@@H](CCC(N)=O)C(=O)N[C@@H](CO)C(=O)N[C@@H](CCC(N)=O)C(=O)N[C@@H](CCC(N)=O)C(=O)N[C@H](C(=O)N[C@@H](Cc1ccccc1)C(=O)N[C@]1(C)CCCCCCC=CCCC[C@@](C)(C(=O)N[C@@H](CCC(N)=O)C(=O)N[C@@H](CC(N)=O)C(N)=O)NC(=O)[C@H](CC(C)C)NC(=O)[C@H](CC(C)C)NC(=O)[C@@H](CCCNC(=N)N)NC(=O)[C@H](Cc2c[nH]c3ccccc23)NC(=O)[C@H](CC(C)C)NC(=O)[C@H](CC(N)=O)NC1=O)[C@H](C)O | inactive |
| CC(C)(C)C(=O)Oc1ccc2c(c1)nc(NC(=O)c1cccc([N+](=O)[O-])c1)n2CCCO | inactive |
| CC=C1NC(=O)[C@H]2CSSCCC=C[C@H](CC(=O)N[C@H](C(C)C)C(=O)N2)OC(=O)[C@H](C(C)C)NC1=O | active |
| Cc1c(C(=O)Nc2ccc(N3C[C@@H](C)O[C@@H](C)C3)nc2)cccc1-c1ccc(OC(F)(F)F)cc1 | active |
| O=C1C(Cl)=C(NCCN2CCOCC2)C(=O)c2ncccc21 | active |
| C[C@@H]1C[C@H]2[C@@H]3CCC4=CC(=O)C=C[C@]4(C)C3(F)[C@@H](O)C[C@]2(C)[C@@]1(O)C(=O)CO (some centres undefined) | inactive |
| Nc1cccc(S(=O)(=O)N2CCCN(S(=O)(=O)c3ccc4c(c3)OCCO4)CC2)c1 | inactive |
| C1=CCOCc2cc(ccc2OCCN2CCCC2)Nc2nccc(n2)-c2cccc(c2)OCC1 | active |
| CC(C)(C)c1[nH]cnc1C=c1[nH]c(=O)c(=Cc2ccccc2)[nH]c1=O | active |
| CC[C@@H](C(=O)O)C1CC[C@H](C)C([C@@H](C)[C@H](O)[C@H](C)C(=O)[C@H](CC)C2O[C@]3(C=C[C@@H](O)[C@]4(CC[C@@](C)(C5CC[C@](O)(CC)[C@H](C)O5)O4)O3)[C@H](C)C[C@@H]2C)O1 (some centres undefined) | active |
| CN1CCC(CNc2ccc3ncc(-c4cccc(OC(F)(F)F)c4)n3n2)CC1 | active |
| O=C(C1CC1)N1CC[C@@H](Cn2c(-c3ccc(-c4ccc5occc5c4)cc3)nc3cnccc32)C1 | active |
